test system: 855422-203-R-J1-PDC spheroids with HUVEC/MSC, viability; experiment: Anticancer human tumor 855422-203-R-J1-PDC patient-derived bladder carcinoma cell line growth inhibition [PI3K]; details: second compound 0.1 µM; first compound 0.01 µM; stronger effect = lower value
RECORDED_ENDPOINT: viability, T/C (%)
Field: numeric (%). Do not append units.

MOLECULE	viability, T/C, %
CC(=O)c1c(C)c2cnc(Nc3ccc(N4CCNCC4)cn3)nc2n(C2CCCC2)c1=O + COc1c(OCCCN2CCOCC2)ccc2c3n(c(=NC(=O)c4cnc(N)nc4)nc12)CCN3	25.4
Cn1ncnc1[C@H]1c2n[nH]c(=O)c3cc(F)cc(c23)N[C@@H]1c1ccc(F)cc1 + Cc1nc(NC(=O)N2CCCC2C(N)=O)sc1-c1ccnc(C(C)(C)C(F)(F)F)c1	101
CC(C)n1nc(-c2ccc3oc(N)nc3c2)c2c(N)ncnc21 + CC(Nc1ccc2c(c1)OCCn1cc(N3C(=O)OCC3C(F)F)nc1-2)C(N)=O	69.9
CC(=O)c1c(C)c2cnc(Nc3ccc(N4CCNCC4)cn3)nc2n(C2CCCC2)c1=O + Cc1nc(NC(=O)N2CCCC2C(N)=O)sc1-c1ccnc(C(C)(C)C(F)(F)F)c1	98.3
CCN1CCN(Cc2ccc(Nc3ncc(F)c(-c4cc(F)c5nc(C)n(C(C)C)c5c4)n3)nc2)CC1 + COc1c(OCCCN2CCOCC2)ccc2c3n(c(=NC(=O)c4cnc(N)nc4)nc12)CCN3	29.3

# input I have this molecule here, CC(C)n1nc(-c2ccc3oc(N)nc3c2)c2c(N)ncnc21 + CC(Nc1ncnc2nc[nH]c12)c1cc2cccc(Cl)c2c(=O)n1-c1ccccc1 , and I need its recorded viability, T/C.
# output 98.1

# input Field entry: Cn1ncnc1[C@H]1c2n[nH]c(=O)c3cc(F)cc(c23)N[C@@H]1c1ccc(F)cc1 + COc1c(OCCCN2CCOCC2)ccc2c3n(c(=NC(=O)c4cnc(N)nc4)nc12)CCN3
# output 27.5

# input Thanks! And CC(C)n1nc(-c2ccc3oc(N)nc3c2)c2c(N)ncnc21 + COc1c(OCCCN2CCOCC2)ccc2c3n(c(=NC(=O)c4cnc(N)nc4)nc12)CCN3 ?
# output 29.3

# input Ok, now CCN1CCN(Cc2ccc(Nc3ncc(F)c(-c4cc(F)c5nc(C)n(C(C)C)c5c4)n3)nc2)CC1 + CC(Nc1ccc2c(c1)OCCn1cc(N3C(=O)OCC3C(F)F)nc1-2)C(N)=O
# output 66.2

# input Okay, and CC(=O)c1c(C)c2cnc(Nc3ccc(N4CCNCC4)cn3)nc2n(C2CCCC2)c1=O + CC(Nc1ncnc2nc[nH]c12)c1cc2cccc(Cl)c2c(=O)n1-c1ccccc1 ?
# output 99.8

* * *

test system: 855422-203-R-J1-PDC spheroids with HUVEC/MSC, viability; assay: Anticancer human tumor 855422-203-R-J1-PDC cell line growth inhibition [PI3K]; conditions: second compound 1 µM; first compound 10 µM; active means viability on the fitted dose curve at most 10% of control; inactive means the rest;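 note: agents incubated with spheroids for one week before read-out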
Hello, when you answer, please use one of the following outcomes: TRUE = active, FALSE = inactive

Record excerpt, results attached:
COMPOUND	TARGET_ENTITY	CLASS
CNC(=O)c1ccc(N2C(=S)N(c3ccc(C#N)c(C(F)(F)F)c3)C(=O)C2(C)C)cc1F + COc1c(OCCCN2CCOCC2)ccc2c3n(c(=NC(=O)c4cnc(N)nc4)nc12)CCN3	855422-203-R-J1-PDC spheroids with HUVEC/MSC, viability	TRUE
CCCS(=O)(=O)Nc1ccc(F)c(C(=O)c2c[nH]c3ncc(-c4ccc(Cl)cc4)cc23)c1F + COc1c(OCCCN2CCOCC2)ccc2c3n(c(=NC(=O)c4cnc(N)nc4)nc12)CCN3	855422-203-R-J1-PDC spheroids with HUVEC/MSC, viability	TRUE
CC(Cn1ccc(-c2ccc(C#N)c(Cl)c2)n1)NC(=O)c1cc(C(C)O)[nH]n1 (stereo not given) + Cc1nc(NC(=O)N2CCCC2C(N)=O)sc1-c1ccnc(C(C)(C)C(F)(F)F)c1	855422-203-R-J1-PDC spheroids with HUVEC/MSC, viability	FALSE

# input For Cn1nccc1Nc1nccc(-c2ccn(C(CO)c3ccc(Cl)c(F)c3)c(=O)c2)n1 (stereo not given) + COc1c(OCCCN2CCOCC2)ccc2c3n(c(=NC(=O)c4cnc(N)nc4)nc12)CCN3 , which call appears in the assay record?
# output TRUE

# input Please give the result for Cn1ncc(Cl)c1-c1cc(C(=O)NC(CN)Cc2cccc(F)c2)sc1Cl (stereo not given) + Cc1nc(NC(=O)N2CCCC2C(N)=O)sc1-c1ccnc(C(C)(C)C(F)(F)F)c1 too.
# output TRUE

* * *

test system: 855422-203-R-J1-PDC spheroids with HUVEC/MSC, viability; assay: Anticancer human tumor 855422-203-R-J1-PDC cell line growth inhibition [PI3K]; settings: second compound 0.0316 µM; first compound 0.1 µM; stronger effect = lower value;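 note: agents incubated with spheroids for one week before read-out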;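 for viability, T/C: 100% = DMSO vehicle-treated control wells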
Response field label takes rule met when viability, T/C is strictly below 80% and rule not met in all other cases.

Example cases with answers are listed next.
COMPOUND	TARGET_ENTITY	CLASS
C[C@@H](NC(=O)c1ncnc(N)c1Cl)c1ncc(C(=O)Nc2cc(C(F)(F)F)c(Cl)cn2)s1 + CC(Nc1ccc2c(c1)OCCn1cc(N3C(=O)OCC3C(F)F)nc1-2)C(N)=O	855422-203-R-J1-PDC spheroids with HUVEC/MSC, viability	rule not met
Cn1nccc1Nc1nccc(-c2ccn(C(CO)c3ccc(Cl)c(F)c3)c(=O)c2)n1 (stereo unspecified) + Cc1nc(NC(=O)N2CCCC2C(N)=O)sc1-c1ccnc(C(C)(C)C(F)(F)F)c1	855422-203-R-J1-PDC spheroids with HUVEC/MSC, viability	rule not met

# input Just wondering, is viability, T/C of Cn1ncc(Cl)c1-c1cc(C(=O)NC(CN)Cc2cccc(F)c2)sc1Cl (stereo unspecified) + CC(Nc1ccc2c(c1)OCCn1cc(N3C(=O)OCC3C(F)F)nc1-2)C(N)=O below 80%?
# output rule met

# input Next compound up: C#Cc1c(F)ccc2cc(O)cc(-c3ncc4c(N5CC6CCC(C5)N6)nc(OCC56CCCN5CC(F)C6)nc4c3F)c12 (stereo unspecified) + CC(Nc1ccc2c(c1)OCCn1cc(N3C(=O)OCC3C(F)F)nc1-2)C(N)=O
# output rule not met

* * *

System: 855422-203-R-J1-PDC spheroids with HUVEC/MSC, viability
Assay: Anticancer human tumor 855422-203-R-J1-PDC cell line growth inhibition [PI3K]; active means viability on the fitted dose curve at most 10% of control; inactive means the rest;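 note: agents incubated with spheroids for one week before read-out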
Conditions: second compound 1 µM; first compound 0.001 µM
From the text: Combinatorial screen of targeted agents with the PI3K inhibitors inavolisib, alpelisib, duvelisib, and copanlisib in multi-cell type tumor spheroids A high-throughput screen of multi-cell type tumor spheroids was designed to identify active combinations of targeted small molecules and PI3K pathway inhibitors. […] Compounds. […] If the clinical Cmax for an agent had not been determined, the highest concentration tested was 10 microM. […]
Response enum: active, inactive

Completed entries (count: 2):
>>> df
                                   compound     class
0  CC(C)n1nc(-c2ccc3oc(N)nc3c2)c2c(N)ncnc21 + CC(Nc1ncnc2nc[nH]c12)c1cc2cccc(Cl)c2c(=O)n1-c1ccccc1  inactive
1  Cn1ncnc1[C@H]1c2n[nH]c(=O)c3cc(F)cc(c23)N[C@@H]1c1ccc(F)cc1 + COc1c(OCCCN2CCOCC2)ccc2c3n(c(=NC(=O)c4cnc(N)nc4)nc12)CCN3    active

Kindly consider the entry below.
# input Would you mind telling me which call this test gave CC(=O)c1c(C)c2cnc(Nc3ccc(N4CCNCC4)cn3)nc2n(C2CCCC2)c1=O + CC(Nc1ccc2c(c1)OCCn1cc(N3C(=O)OCC3C(F)F)nc1-2)C(N)=O ?
# output inactive

* * *

system: 855422-203-R-J1-PDC spheroids with HUVEC/MSC, viability; assay: Anticancer human tumor 855422-203-R-J1-PDC cell line growth inhibition [PI3K]; conditions: curve of first compound; second compound 0.1 µM;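 note: agents incubated with spheroids for one week before read-out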
RECORDED_ENDPOINT: IC50 (µM)
Report as a plain number; the unit µM is understood.

MOLECULE	TARGET_ENTITY	IC50 / µM
CCN1CCN(Cc2ccc(Nc3ncc(F)c(-c4cc(F)c5nc(C)n(C(C)C)c5c4)n3)nc2)CC1 + CC(Nc1ccc2c(c1)OCCn1cc(N3C(=O)OCC3C(F)F)nc1-2)C(N)=O	855422-203-R-J1-PDC spheroids with HUVEC/MSC, viability	0.0707

// next entry
# input # get_value(readout= IC50, system= 855422-203-R-J1-PDC spheroids with HUVEC/MSC, viability) for Cn1ncc(Cl)c1-c1cc(C(=O)NC(CN)Cc2cccc(F)c2)sc1Cl (stereo unspecified) + CC(Nc1ccc2c(c1)OCCn1cc(N3C(=O)OCC3C(F)F)nc1-2)C(N)=O
# output 0.257

* * *

Test system: 855422-203-R-J1-PDC spheroids with HUVEC/MSC, viability
Experiment: Anticancer human tumor 855422-203-R-J1-PDC cell line growth inhibition [PI3K];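 note: agents incubated with spheroids for one week before read-out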;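 for viability, T/C: 100% = DMSO vehicle-treated control wells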
Settings: second compound 10 µM; first compound 0.0316 µM; stronger effect = lower value
From the text: Combinatorial screen of targeted agents with the PI3K inhibitors inavolisib, alpelisib, duvelisib, and copanlisib in multi-cell type tumor spheroids A high-throughput screen of multi-cell type tumor spheroids was designed to identify active combinations of targeted small molecules and PI3K pathway inhibitors. […] Compounds. […] If the clinical Cmax for an agent had not been determined, the highest concentration tested was 10 microM. […]
RECORDED_ENDPOINT: viability, T/C (%)
Answer in %, number only, no unit symbol.

Solved entries (count: 5):
COMPOUND	RECORDED_ENDPOINT	MEASURED_RESULT
CC1(C)CCC(Nc2ncc(C(F)(F)F)c(-c3c[nH]c4c(P(C)(C)=O)c(C#N)ccc34)n2)CN1 (stereo unspecified) + Cc1nc(NC(=O)N2CCCC2C(N)=O)sc1-c1ccnc(C(C)(C)C(F)(F)F)c1	viability, T/C	11.8
Cn1ncnc1[C@H]1c2n[nH]c(=O)c3cc(F)cc(c23)N[C@@H]1c1ccc(F)cc1 + CC(Nc1ncnc2nc[nH]c12)c1cc2cccc(Cl)c2c(=O)n1-c1ccccc1	viability, T/C	89.5
Cn1ncc(Cl)c1-c1cc(C(=O)NC(CN)Cc2cccc(F)c2)sc1Cl (stereo unspecified) + CC(Nc1ncnc2nc[nH]c12)c1cc2cccc(Cl)c2c(=O)n1-c1ccccc1	viability, T/C	83.4
CC(Cn1ccc(-c2ccc(C#N)c(Cl)c2)n1)NC(=O)c1cc(C(C)O)[nH]n1 (stereo unspecified) + CC(Nc1ncnc2nc[nH]c12)c1cc2cccc(Cl)c2c(=O)n1-c1ccccc1	viability, T/C	88.5
CC(=O)c1c(C)c2cnc(Nc3ccc(N4CCNCC4)cn3)nc2n(C2CCCC2)c1=O + Cc1nc(NC(=O)N2CCCC2C(N)=O)sc1-c1ccnc(C(C)(C)C(F)(F)F)c1	viability, T/C	19.3

# input compound: CCCS(=O)(=O)Nc1ccc(F)c(C(=O)c2c[nH]c3ncc(-c4ccc(Cl)cc4)cc23)c1F + CC(Nc1ncnc2nc[nH]c12)c1cc2cccc(Cl)c2c(=O)n1-c1ccccc1 ; wanted: its viability, T/C
# output 87

# input Check C=CC(=O)N1CCN(c2nc(=O)n(-c3c(C)ccnc3C(C)C)c3nc(-c4c(O)cccc4F)c(F)cc23)C(C)C1 (stereo unspecified) + Cc1nc(NC(=O)N2CCCC2C(N)=O)sc1-c1ccnc(C(C)(C)C(F)(F)F)c1 too.
# output 26.9

# input Repeat for the following compound: C=CC(=O)N1CCN(c2nc(=O)n(-c3c(C)ccnc3C(C)C)c3nc(-c4c(O)cccc4F)c(F)cc23)C(C)C1 (stereo unspecified) + CC(Nc1ncnc2nc[nH]c12)c1cc2cccc(Cl)c2c(=O)n1-c1ccccc1
# output 108

# input Check Cn1nccc1Nc1nccc(-c2ccn(C(CO)c3ccc(Cl)c(F)c3)c(=O)c2)n1 (stereo unspecified) + Cc1nc(NC(=O)N2CCCC2C(N)=O)sc1-c1ccnc(C(C)(C)C(F)(F)F)c1 too.
# output 24.6

# input Try CC(C)NCC(C(=O)N1CCN(c2ncnc3c2C(C)CC3O)CC1)c1ccc(Cl)cc1 (stereo unspecified) + CC(Nc1ncnc2nc[nH]c12)c1cc2cccc(Cl)c2c(=O)n1-c1ccccc1 next.
# output 85.3

# input Another compound to look at: Cn1ncc(Cl)c1-c1cc(C(=O)NC(CN)Cc2cccc(F)c2)sc1Cl (stereo unspecified) + Cc1nc(NC(=O)N2CCCC2C(N)=O)sc1-c1ccnc(C(C)(C)C(F)(F)F)c1
# output 25.8
